- TARGET_OF_ASSAY: Cif (Pseudomonas aeruginosa (strain UCBPP-PA14), UniProt A0A0H2ZD27)
- Sequence (A0A0H2ZD27 25-319 limits assumed): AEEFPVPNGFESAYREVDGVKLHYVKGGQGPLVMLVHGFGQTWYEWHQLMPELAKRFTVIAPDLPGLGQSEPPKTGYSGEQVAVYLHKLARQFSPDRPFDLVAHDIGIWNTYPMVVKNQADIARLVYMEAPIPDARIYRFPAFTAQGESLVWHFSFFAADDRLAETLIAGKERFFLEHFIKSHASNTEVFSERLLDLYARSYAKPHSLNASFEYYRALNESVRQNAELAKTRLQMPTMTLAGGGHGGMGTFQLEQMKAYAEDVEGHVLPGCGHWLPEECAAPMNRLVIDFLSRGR
- TEST_SUMMARY: Secondary screen (sextuplicate) with fluorogenic substrate CMNGC
- Type: biochemical
- CONDITION_SUMMARY: read-out: % Inhibition, plate 4
Structures can show the parent of a compound that is named as a salt.
MEASURED_QUANTITY: inhibition at 10 µM (%)
Kindly answer with a numeric value in %, unit omitted.

INPUT: Request the reported inhibition at 10 µM associated with Nc1nc2c(ncn2CCC(CO)CO)c(=O)[nH]1 [Penciclovir]
OUTPUT: 3

INPUT: Request the reported inhibition at 10 µM associated with O=C1CC2(CCCC2)CC(=O)N1CCCCN1CCN(c2ncccn2)CC1 [Buspirone hydrochloride]
OUTPUT: -1

INPUT: Request the reported inhibition at 10 µM associated with COC(=O)/C=C/C(=O)OC [Dimethyl fumarate]
OUTPUT: 7

INPUT: Request the reported inhibition at 10 µM associated with Cc1c(Nc2ncccc2C(=O)O)cccc1C(F)(F)F [Flunixin meglumine]
OUTPUT: 18

INPUT: Request the reported inhibition at 10 µM associated with CCOC(=O)[C@H](CCc1ccccc1)N[C@@H](C)C(=O)N1CCC[C@H]1C(=O)O [Enalapril maleate]
OUTPUT: 9

INPUT: Request the reported inhibition at 10 µM associated with Cc1nccnc1N1CCCCC1 [Modaline sulfate]
OUTPUT: 12

INPUT: Request the reported inhibition at 10 µM associated with C=CCc1ccc(O)c(OC)c1 [Eugenol]
OUTPUT: 4

INPUT: Request the reported inhibition at 10 µM associated with CC(C(=O)O)c1cccc(C(=O)c2ccccc2)c1 (stereo not shown) [Ketoprofen]
OUTPUT: 8

INPUT: Request the reported inhibition at 10 µM associated with CN(C)CCOc1ccc(/C(=C(/CCCl)c2ccccc2)c2ccccc2)cc1 [Toremiphene citrate]
OUTPUT: 12

INPUT: Request the reported inhibition at 10 µM associated with O=C(CCCCCCC(=O)Nc1ccccc1)NO [Vorinostat]
OUTPUT: 14

----------
- TARGET_OF_ASSAY: Cif (Pseudomonas aeruginosa (strain UCBPP-PA14), UniProt A0A0H2ZD27)
- TEST_SUMMARY: Secondary screen (sextuplicate) with fluorogenic substrate CMNGC
- Assay type: biochemical
- CONDITION_SUMMARY: read-out: % Inhibition, plate 5
Counter-ions that a name gives are not always drawn.
Could you please report measured inhibition at 10 µM for the items listed next?
Kindly answer with a numeric value in %, unit omitted.

INPUT: Request the reported inhibition at 10 µM associated with Cc1nccnc1N1CCCCC1 [Modaline sulfate]
OUTPUT: 13

INPUT: Request the reported inhibition at 10 µM associated with "NC[C@H]1O[C@H](O[C@H]2[C@H](O)[C@@H](O[C@H]3O[C@H](CO)[C@@H](O)[C@H](N)[C@H]3O)[C@H](N)C[C@@H]2N)[C@H](N)C[C@@H]1O"
OUTPUT: 0

INPUT: Request the reported inhibition at 10 µM associated with CN(C)CCCN1c2ccccc2Sc2ccc(C(F)(F)F)cc21 [Triflupromazine hydrochloride]
OUTPUT: 8

INPUT: Request the reported inhibition at 10 µM associated with CN1CCCC(n2nc(Cc3ccc(Cl)cc3)c3ccccc3c2=O)CC1 (centres unmarked) [Azelastine hydrochloride]
OUTPUT: 42

INPUT: Request the reported inhibition at 10 µM associated with CCCCCCCCCCCCCCOS(=O)(=O)O [Sodium tetradecyl sulfate]
OUTPUT: 13

INPUT: Request the reported inhibition at 10 µM associated with CN(C)CCOc1ccc(/C(=C(/CCCl)c2ccccc2)c2ccccc2)cc1 [Toremiphene citrate]
OUTPUT: 15

INPUT: Request the reported inhibition at 10 µM associated with "Nc1ccc(S(=O)(=O)Nc2ncccn2)cc1"
OUTPUT: 28

INPUT: Request the reported inhibition at 10 µM associated with "O=C(CCCCCCC(=O)Nc1ccccc1)NO"
OUTPUT: 18

----------
- TARGET_OF_ASSAY: Cif (Pseudomonas aeruginosa (strain UCBPP-PA14), UniProt A0A0H2ZD27)
- TEST_SUMMARY: Secondary screen (sextuplicate) with fluorogenic substrate CMNGC
- Format: biochemical
- CONDITION_SUMMARY: read-out: % Inhibition, plate 4
Counter-ions that a name gives are not always drawn.
Quick rule: inhibition at 10 µM of at least 20% means 1, below that means 0.

INPUT: Tell me whether inhibition at 10 µM is at least 20% here: "Nc1ccc(S(=O)(=O)Nc2ncccn2)cc1"
OUTPUT: 1

INPUT: Tell me whether inhibition at 10 µM is at least 20% here: C[N+](C)(C)CC(=O)O [Betaine hydrochloride]
OUTPUT: 0

INPUT: Tell me whether inhibition at 10 µM is at least 20% here: CC(=O)CC(c1ccccc1)c1c(O)c2ccccc2oc1=O (stereo not drawn)
OUTPUT: 0

INPUT: Tell me whether inhibition at 10 µM is at least 20% here: "Nc1nc(Cl)nc2c1ncn2[C@@H]1O[C@H](CO)[C@@H](O)[C@@H]1F"
OUTPUT: 0

INPUT: Tell me whether inhibition at 10 µM is at least 20% here: "NC[C@H]1O[C@H](O[C@H]2[C@H](O)[C@@H](O[C@H]3O[C@H](CO)[C@@H](O)[C@H](N)[C@H]3O)[C@H](N)C[C@@H]2N)[C@H](N)C[C@@H]1O"
OUTPUT: 0

INPUT: Tell me whether inhibition at 10 µM is at least 20% here: CN(C)CCCN1c2ccccc2Sc2ccc(C(F)(F)F)cc21 [Triflupromazine hydrochloride]
OUTPUT: 0

INPUT: Tell me whether inhibition at 10 µM is at least 20% here: CN1CCCC(n2nc(Cc3ccc(Cl)cc3)c3ccccc3c2=O)CC1 (stereo not drawn) [Azelastine hydrochloride]
OUTPUT: 1

INPUT: Tell me whether inhibition at 10 µM is at least 20% here: CC(C)Cc1ccc(C(C)C(=O)O)cc1 (stereo not drawn)
OUTPUT: 0

INPUT: Tell me whether inhibition at 10 µM is at least 20% here: NCC(O)c1ccc(O)cc1 (stereo not drawn) [Octopamine hydrochloride]
OUTPUT: 0

INPUT: Tell me whether inhibition at 10 µM is at least 20% here: CCCCCCCCCCCCCCOS(=O)(=O)O [Sodium tetradecyl sulfate]
OUTPUT: 0

INPUT: Tell me whether inhibition at 10 µM is at least 20% here: "Nc1nc(N)c2nc(-c3ccccc3)c(N)nc2n1"
OUTPUT: 1

INPUT: Tell me whether inhibition at 10 µM is at least 20% here: "CCN(CC)CCOc1ccc2c(c1)C(=O)c1cc(OCCN(CC)CC)ccc1-2"
OUTPUT: 0

INPUT: Tell me whether inhibition at 10 µM is at least 20% here: "C[C@]12CCC(=O)C=C1C=C[C@@H]1[C@@H]2CC[C@@]2(C)[C@H]1CC[C@@]21CCC(=O)O1"
OUTPUT: 1

INPUT: Tell me whether inhibition at 10 µM is at least 20% here: NC(CO)C(=O)NNCc1ccc(O)c(O)c1O (stereo not drawn) [Benserazide hydrochloride]
OUTPUT: 1

INPUT: Tell me whether inhibition at 10 µM is at least 20% here: "Cc1cccc(Nc2ccccc2C(=O)O)c1C"
OUTPUT: 1

INPUT: Tell me whether inhibition at 10 µM is at least 20% here: "CC1=NN(c2ccccc2)C(=O)C1"
OUTPUT: 1

INPUT: Tell me whether inhibition at 10 µM is at least 20% here: "C[C@]12CC[C@@H]3c4ccc(O)cc4CC[C@H]3[C@@H]1CC[C@@H]2O"
OUTPUT: 0

INPUT: Tell me whether inhibition at 10 µM is at least 20% here: CO[C@@]1(NC(=O)Cc2cccs2)C(=O)N2C(C(=O)O)=C(COC(N)=O)CS[C@@H]21 [Cefoxitin sodium]
OUTPUT: 0

----------
MEASURED_QUANTITY: IC50 (µM)
Kindly answer with a numeric value in µM, unit omitted.

INPUT: API: value(readout= IC50, system= Human mEH (Homo sapiens (Human)), query= "CCC(=O)Nc1cc(Cl)c(Oc2ccc(O)c(-c3ccc(NC(C)=O)cc3)c2)c(Cl)c1" )
OUTPUT: 97.8

----------
- TARGET_OF_ASSAY: Cif (Pseudomonas aeruginosa (strain UCBPP-PA14))
- TEST_SUMMARY: Secondary screen (sextuplicate) with fluorogenic substrate CMNGC;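 also: purified enzyme assay in 96-well plates, 200 µL volume, fluorescence recorded each minute across a 60 min reaction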
- Type: biochemical
- CONDITION_SUMMARY: read-out: % Inhibition, plate 5
Where a name gives a salt, the structure may show the parent alone.
MEASURED_QUANTITY: inhibition at 10 µM (%)
Kindly answer with a numeric value in %, unit omitted.

INPUT: Request the reported inhibition at 10 µM associated with "N#C[C@@H]1C[C@@H]2C[C@@H]2N1C(=O)[C@@H](N)C12CC3CC(CC(O)(C3)C1)C2"
OUTPUT: 11

INPUT: Request the reported inhibition at 10 µM associated with "Nc1nc(Cl)nc2c1ncn2[C@@H]1O[C@H](CO)[C@@H](O)[C@@H]1F"
OUTPUT: 20

INPUT: Request the reported inhibition at 10 µM associated with "C=C(NC(=O)C(=C)NC(=O)c1csc(C2=N[C@@H]3c4csc(n4)[C@H]4NC(=O)c5csc(n5)[C@H]([C@](C)(O)[C@@H](C)O)NC(=O)[C@H]5CSC(=N5)/C(=C/C)NC(=O)[C@H]([C@@H](C)O)NC(=O)c5csc(n5)[C@]3(CC2)NC(=O)[C@H](C)NC(=O)C(=C)NC(=O)[C@H](C)NC(=O)[C@H]([C@@H](C)CC)N[C@@H]2C=Cc3c([C@H](C)O)cc(nc3[C@H]2O)C(=O)O[C@@H]4C)n1)C(N)=O"
OUTPUT: 43

INPUT: Request the reported inhibition at 10 µM associated with O=C1CC2(CCCC2)CC(=O)N1CCCCN1CCN(c2ncccn2)CC1 [Buspirone hydrochloride]
OUTPUT: -2

INPUT: Request the reported inhibition at 10 µM associated with "C=CCc1ccc(O)c(OC)c1"
OUTPUT: 6

INPUT: Request the reported inhibition at 10 µM associated with "Nc1nc(N)c2nc(-c3ccccc3)c(N)nc2n1"
OUTPUT: 28

INPUT: Request the reported inhibition at 10 µM associated with CC(C(=O)O)c1cccc(C(=O)c2ccccc2)c1 (stereo not shown)
OUTPUT: 15

INPUT: Request the reported inhibition at 10 µM associated with "CCN(CC)CCOc1ccc2c(c1)C(=O)c1cc(OCCN(CC)CC)ccc1-2"
OUTPUT: 10

INPUT: Request the reported inhibition at 10 µM associated with CN(C)CCCN1c2ccccc2CCc2ccc(Cl)cc21 [Clomipramine hydrochloride]
OUTPUT: 9

INPUT: Request the reported inhibition at 10 µM associated with "C[C@]12CC[C@@H]3c4ccc(O)cc4CC[C@H]3[C@@H]1CC[C@@H]2O"
OUTPUT: 8

INPUT: Request the reported inhibition at 10 µM associated with CCOC(=O)[C@H](CCc1ccccc1)N[C@@H](C)C(=O)N1CCC[C@H]1C(=O)O [Enalapril maleate]
OUTPUT: 10

INPUT: Request the reported inhibition at 10 µM associated with "Nc1nc2c(ncn2CCC(CO)CO)c(=O)[nH]1"
OUTPUT: 7

INPUT: Request the reported inhibition at 10 µM associated with CC(=O)CC(c1ccccc1)c1c(O)c2ccccc2oc1=O (stereo not shown)
OUTPUT: 20

INPUT: Request the reported inhibition at 10 µM associated with "CC1=NN(c2ccccc2)C(=O)C1"
OUTPUT: 19

INPUT: Request the reported inhibition at 10 µM associated with CO[C@@]1(NC(=O)Cc2cccs2)C(=O)N2C(C(=O)O)=C(COC(N)=O)CS[C@@H]21 [Cefoxitin sodium]
OUTPUT: 19

INPUT: Request the reported inhibition at 10 µM associated with CC(C)Cc1ccc(C(C)C(=O)O)cc1 (stereo not shown)
OUTPUT: 15
